assay: Volume of distribution at steady state in Sprague-Dawley rat at 1 mg/kg, iv; format: ADME, organism-based; conditions: in vivo, read-out: Vdss
test-readout: Vd
Units required after the number.

Q: Identify the reported Vd for the following entry. Cc1cc(S(=O)(=O)N[C@H](C)C2CCN(C)CC2)ccc1NC(=O)c1ccccc1C
Ans: 4.4 L/kg

* * *

assay: AUClast in Sprague-Dawley rat at 50 mg/kg, po; type: ADME, organism-based; design: dose 50 mg/kg, route po; conditions: in vivo
test-readout: AUC(0-t) (ng·h/mL)
The response must be a number in ng·h/mL with no trailing unit.

Q: Identify the reported AUC(0-t) for the following entry. Cc1cc(S(=O)(=O)N[C@H](C)C2CCN(C)CC2)ccc1NC(=O)c1ccccc1C
Ans: 13600

* * *

experiment: AUClast in Beagle dog at 3 mg/kg, iv; type: ADME, organism-based, Canis lupus familiaris; design: dose 3 mg/kg, route iv; settings: in vivo
test-readout: AUC(0-t) (ng·h/mL)
The response must be a number in ng·h/mL with no trailing unit.

Q: Identify the reported AUC(0-t) for the following entry. Cc1cc(S(=O)(=O)N[C@H](C)C2CCN(C)CC2)ccc1NC(=O)c1ccccc1C
Ans: 3550

* * *

assay: Stability in rat liver microsomes assessed as half life; assay type: ADME, Microsome
test-readout: half-life (h)
The response must be a number in h with no trailing unit.

Q: Identify the reported half-life for the following entry. Cc1cc(S(=O)(=O)N[C@H](C)C2CCN(C)CC2)ccc1NC(=O)c1ccccc1C
Ans: 2.5

* * *

assay: Clearance in Cynomolgous monkey at 1 mg/kg, iv; assay type: ADME, organism-based, Macaca fascicularis; settings: cynomolgus monkey, in vivo
test-readout: clearance
Units required after the number.

Q: Identify the reported clearance for the following entry. Cc1cc(S(=O)(=O)N[C@H](C)C2CCN(C)CC2)ccc1NC(=O)c1ccccc1C
Ans: 31.1 mL/min/kg

* * *

experiment: Stability in mouse liver microsomes assessed as half life; type: ADME, Microsome
test-readout: half-life (min)
The response must be a number in min with no trailing unit.

Q: Identify the reported half-life for the following entry. Cc1cc(S(=O)(=O)N[C@H](C)C2CCN(C)CC2)ccc1NC(=O)c1ccccc1C
Ans: 26

* * *

experiment: Tmax in Cynomolgous monkey at 50 mg/kg, po; assay type: ADME, organism-based, Macaca fascicularis; conditions: cynomolgus monkey, in vivo
test-readout: Tmax (h)
The response must be a number in h with no trailing unit.

Q: Identify the reported Tmax for the following entry. Cc1cc(S(=O)(=O)N[C@H](C)C2CCN(C)CC2)ccc1NC(=O)c1ccccc1C
Ans: 2.3

* * *

Field: solubility at 2 h. Provide a value for each of the compounds that follow.
test: Solubility of compound in PBS at pH 7.4 incubated for 2 hrs by LC-MS/MS analysis; assay type: physicochemical

Q: Identify the reported solubility at 2 h for the following entry. Cc1ccccc1C(=O)Nc1c(C)cc(S(=O)(=O)N[C@H](C)C2CCN(C)CC2)cc1Cl
Ans: 247 µM

Q: Identify the reported solubility at 2 h for the following entry. Cc1cc(S(=O)(=O)N[C@H](C)C2CCN(C)CC2)ccc1NC(=O)c1ccccc1C
Ans: 254 µM

Q: Identify the reported solubility at 2 h for the following entry. Cc1ccccc1C(=O)Nc1ccc(S(=O)(=O)N[C@H](C)C2CCN(C)CC2)cc1Cl
Ans: 233 µM

Q: Identify the reported solubility at 2 h for the following entry. Cc1ccccc1C(=O)Nc1ccc(S(=O)(=O)N[C@H](C)C2CCN(C)CC2)c2ccccc12
Ans: < 3 µM

* * *

assay: Clearance in ICR mouse at 1 mg/kg, iv; assay type: ADME, organism-based; conditions: in vivo
test-readout: clearance (mL/min/kg)
The response must be a number in mL/min/kg with no trailing unit.

Q: Identify the reported clearance for the following entry. Cc1cc(S(=O)(=O)N[C@H](C)C2CCN(C)CC2)ccc1NC(=O)c1ccccc1C
Ans: 24.5

* * *

assay: AUClast in ICR mouse at 50 mg/kg, po; assay type: ADME, organism-based; parameters: dose 50 mg/kg, route po; conditions: in vivo
test-readout: AUC(0-t) (ng·h/mL)
The response must be a number in ng·h/mL with no trailing unit.

Q: Identify the reported AUC(0-t) for the following entry. Cc1cc(S(=O)(=O)N[C@H](C)C2CCN(C)CC2)ccc1NC(=O)c1ccccc1C
Ans: 22100

* * *

experiment: Volume of distribution at steady state in Beagle dog at 3 mg/kg, iv; type: ADME, organism-based, Canis lupus familiaris; details: in vivo, read-out: Vdss
test-readout: Vd (L/kg)
The response must be a number in L/kg with no trailing unit.

Q: Identify the reported Vd for the following entry. Cc1cc(S(=O)(=O)N[C@H](C)C2CCN(C)CC2)ccc1NC(=O)c1ccccc1C
Ans: 2.2

* * *

Field: efflux ratio at 2 h, 10 µM. Provide a value for each of the molecules that follow.
assay: Efflux ratio of apparent permeability across basolateral to apical side over apical to basolateral side in human Caco-2 cells at 10 uM incubated for 120 mins by LC-MS/MS analysis
Please respond with just the number, no unit label.

Q: Identify the reported efflux ratio at 2 h, 10 µM for the following entry. Cc1cc(S(=O)(=O)N[C@H](C)C2CCN(C)CC2)ccc1NC(=O)C1CCCCCC1
Ans: 8.9

Q: Identify the reported efflux ratio at 2 h, 10 µM for the following entry. Cc1cc(S(=O)(=O)N[C@H](C)C2CCN(C)CC2)ccc1NC(=O)c1cc(Cl)ccc1C
Ans: 19.6

Q: Identify the reported efflux ratio at 2 h, 10 µM for the following entry. Cc1cc(S(=O)(=O)N[C@H](C)C2CCN(C)CC2)c(F)cc1NC(=O)c1ccccc1C
Ans: 9

Q: Identify the reported efflux ratio at 2 h, 10 µM for the following entry. Cc1cc(S(=O)(=O)N[C@H](C)C2CCN(C)CC2)ccc1NC(=O)c1ccc(Cl)cc1C
Ans: 17.6

Q: Identify the reported efflux ratio at 2 h, 10 µM for the following entry. Cc1ccccc1C(=O)Nc1c(C)cc(S(=O)(=O)N[C@H](C)C2CCN(C)CC2)cc1Cl
Ans: 17.7

Q: Identify the reported efflux ratio at 2 h, 10 µM for the following entry. Cc1ccccc1C(=O)Nc1ccc(S(=O)(=O)N[C@H](C)C2CCN(C)CC2)cc1C#N
Ans: 13.5

* * *

experiment: Oral bioavailability in Sprague-Dawley rat at 50 mg/kg; type: ADME, organism-based; details: in vivo
test-readout: bioavailability

Q: Identify the reported bioavailability for the following entry. Cc1cc(S(=O)(=O)N[C@H](C)C2CCN(C)CC2)ccc1NC(=O)c1ccccc1C
Ans: 66%
